Target Under Test: Troponin I, cardiac muscle (Homo sapiens) + Troponin T, cardiac muscle (Homo sapiens) + Troponin C, slow skeletal and cardiac muscles (Homo sapiens) (UniProt P19429+P45379+P63316)
Assay Explanation: cardiac RTF calcium sensitivity activators, confirmation, biochemical, IANBD-TnC fluorescence, triplicate (AID 504383);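 note: 0% = DMSO at 0.472 mM calcium and 100% = DMSO at 2.9 mM calcium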
Condition Description: IANBD-labeled cardiac RTF, Ca2+ sensitivity fluorescence; at 7.2 µM; active compounds read high; scaled from EC20 to saturating calcium; tested at EC20 calcium, 0.472 mM
The whole screen tested about 2,500 compounds, of which about 1,200 (48%) were called active. So high a share suggests a set chosen from earlier hits. This is one part of the list.
// values below are reported activation
Express it in %; write the number only.

Observe how each entry below is paired with its result.
# Compound, activation (%)
measured = [
    ("COc1ccc(Nc2cccc3ccccc23)cc1", 199),
    ("O=C(NCC(=O)N(Cc1cccs1)C(C(=O)NC1CCCCC1)c1ccncc1)c1ccco1 (stereo unspecified)", 3.25),
    ("COc1ccc(Nc2cc(C)nc3ccc(OC)cc23)cc1", 4.34),
]

In the following, a different compound is considered.
Fill in the blank: the reported activation of Cn1nnnc1SCCOc1ccc(C#N)cc1 is ____. -1.4

----------
Target Under Test: Troponin I, cardiac muscle (Homo sapiens) + Troponin T, cardiac muscle (Homo sapiens) + Troponin C, slow skeletal and cardiac muscles (Homo sapiens) (UniProt P19429+P45379+P63316)
Assay Explanation: cardiac RTF calcium sensitivity activators, confirmation, biochemical, IANBD-TnC fluorescence, triplicate (AID 504383);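 note: 0% = DMSO at 0.472 mM calcium and 100% = DMSO at 2.9 mM calcium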
Condition Description: IANBD-labeled cardiac RTF, Ca2+ sensitivity fluorescence; at 7.2 µM; active compounds read high; scaled from EC20 to saturating calcium; tested at EC20 calcium, 0.472 mM
Screen size: about 2,500 compounds; about 1,200 (48%) were called active. The set was probably picked from earlier hits. Some of the results follow.
Readout Kind: activation

Observe how each entry below is paired with its result.
# Compound, Readout Kind, Value Observed
data = [
    ("O=C1CC(/C=C/c2ccco2)=Nc2ccccc2N1", "activation", "7.68% (inactive)"),
    ("O=C(O)c1ccccc1-c1c2cc(I)c(=O)c(I)c-2oc2c(I)c(O)c(I)cc12", "activation", "5.23% (inactive)"),
    ("CCCn1c(=N)n(CC(O)c2ccco2)c2ccccc21 (stereo unspecified)", "activation", "2.41% (inactive)"),
    ("N=c1n(Cc2ccccc2)c2ccccc2n1CC(O)c1ccco1 (stereo unspecified)", "activation", "29.1% (active)"),
    ("O=C(Nc1ccccc1-c1ccccc1)c1ccc(Cl)c([N+](=O)[O-])c1", "activation", "48.5% (active)"),
    ("C=CCn1c(C)cc(-c2csc(N)n2)c1C", "activation", "9.08% (inactive)"),
    ("CCn1c(=N)n(CC(O)c2ccccc2)c2ccccc21 (stereo unspecified)", "activation", "9.44% (inactive)"),
    ("CC(=O)N1C(=O)C(=C2C=C(C)OC(C)=C2)c2ccccc21", "activation", "62.7% (active)"),
]

Fill in the blank: the reported activation of O=C1/C(=C/c2c[nH]c3ccccc23)CCC/C1=C\c1c[nH]c2ccccc12 is ____. 7.19% (inactive)

Lookup Nc1ccc2c(c1)C/C(=C/c1ccco1)C2=O 22% (active)

Lookup CCOC(=O)c1c(NC(=O)c2ccno2)c2cc([N+](=O)[O-])ccc2n1C 4.78% (inactive)

----------
Target Under Test: Troponin I, cardiac muscle (Homo sapiens) + Troponin T, cardiac muscle (Homo sapiens) + Troponin C, slow skeletal and cardiac muscles (Homo sapiens) (UniProt P19429+P45379+P63316)
Assay Explanation: cardiac RTF calcium sensitivity activators, confirmation, biochemical, IANBD-TnC fluorescence, triplicate (AID 504383);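 note: 0% = DMSO at 0.472 mM calcium and 100% = DMSO at 2.9 mM calcium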
Condition Description: IANBD-labeled cardiac RTF, Ca2+ sensitivity fluorescence; at 7.2 µM; scaled from EC20 to saturating calcium; tested at EC20 calcium, 0.472 mM
The whole screen tested about 2,500 compounds, of which about 1,200 (48%) were called active.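 Rule for the calls: active = mean activation above the low control average plus 3 SD, as set in the primary screen (cut at about 12% in these data); inactive = the rest.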 So high a share suggests a set chosen from earlier hits. The list shows a part of the results.
Answer with one of the outcomes True = active, False = inactive

# count of solved cases: 4
# Smiles, Assigned Label
measured = [
    ("O=C(NCc1ccco1)/C(=C\\c1ccco1)NC(=O)c1ccc(Br)o1", "True"),
    ("CCOC(=O)c1c(/N=C/c2cccc([N+](=O)[O-])c2O)sc(C)c1C", "False"),
    ("CC1(C)CC(=O)C=C(NCc2ccc(Cl)c(Cl)c2)C1", "False"),
    ("COC(=O)c1c(NC(=O)c2ccnn2C)sc(C)c1C", "False"),
]

What did the test return for Cc1nnc(N2CCOCC2)c2nn(-c3cccc(Cl)c3)c(C)c12 ? False

Lookup COC(=O)c1c(NC(=O)CN2CCN(c3cccc(Cl)c3)CC2)sc(C)c1C True

----------
Target Under Test: Troponin I, cardiac muscle (Homo sapiens) + Troponin T, cardiac muscle (Homo sapiens) + Troponin C, slow skeletal and cardiac muscles (Homo sapiens) (UniProt P19429+P45379+P63316)
Assay Explanation: cardiac RTF calcium sensitivity activators, confirmation, biochemical, IANBD-TnC fluorescence, triplicate (AID 504383);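 note: 0% = DMSO at 0.472 mM calcium and 100% = DMSO at 2.9 mM calcium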
Condition Description: IANBD-labeled cardiac RTF, Ca2+ sensitivity fluorescence; at 7.2 µM; active compounds read high; scaled from EC20 to saturating calcium; tested at EC20 calcium, 0.472 mM
About 1,200 (48%) of roughly 2,500 compounds were called active. So high a share suggests a set chosen from earlier hits. Some of the results follow.
# label = rule met if activation >= 20% else rule not met

Given the entry COc1cc2c(cc1OC)-c1cc3ccc4c(c3c[n+]1CC2)OCO4 , answer whether its activation meets or surpasses 20%. rule not met

Lookup CC(=O)Nc1ccc2cc3ccc(NC(C)=O)cc3nc2c1 rule met

Lookup CC(=O)Nc1ccccc1 rule not met

Lookup Cc1ccc(CSc2nnc(SCC(=O)N/N=C/c3ccccc3OCC(=O)O)s2)cc1 rule not met

Lookup CCOC(=O)N1CCC(Nc2cccc(SC)c2)CC1 rule met

Lookup CCN(CC)CCCNc1ccc2ncn3c4ccc(O)cc4c(=O)c1c23 rule not met

----------
Target Under Test: Troponin I, cardiac muscle (Homo sapiens) + Troponin T, cardiac muscle (Homo sapiens) + Troponin C, slow skeletal and cardiac muscles (Homo sapiens) (UniProt P19429+P45379+P63316)
Assay Explanation: cardiac RTF calcium sensitivity activators, confirmation, biochemical, IANBD-TnC fluorescence, triplicate (AID 504383);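 note: 0% = DMSO at 0.472 mM calcium and 100% = DMSO at 2.9 mM calcium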
Condition Description: IANBD-labeled cardiac RTF, Ca2+ sensitivity fluorescence; at 7.2 µM; active compounds read high; scaled from EC20 to saturating calcium; tested at EC20 calcium, 0.472 mM
In all, about 2,500 compounds went through this assay and about 1,200 (48%) were called active. The set was probably picked from earlier hits. The list shows a part of the results.
// values below are reported activation
Express it in %; write the number only.

Observe how each entry below is paired with its result.
# Compound, Value Observed
rows = [
    ("O=C(Nn1cnnc1)c1cc([N+](=O)[O-])cc([N+](=O)[O-])c1", 11.3),
    ("CCOC(=O)c1c(C#N)c(SCC(=O)Nc2ccc(OC)cc2)nc2c1CN(CC)CC2", 78.6),
    ("COc1ccc(-c2onc3ccc(C(C)=O)cc23)cc1", 18),
    ("COC(=O)CCC(=O)OC1(C)C(=O)C2=CN(Cc3ccc(OC)cc3)C(c3ccc(OC)cc3)=CC2=C(Br)C1=O (stereo not given)", 6),
    ("COCCNC(=O)CSc1nc(N)c(NC(=O)c2ccccc2F)c(=O)[nH]1", 11.4),
    ("Cc1ccc(C)c(S(=O)(=O)N2CCCC2CNC(=O)C(=O)NC2CC2)c1 (stereo not given)", 5.98),
    ("COc1ccc(C(=O)Nn2cnc3scc(-c4cccs4)c3c2=O)c(O)c1", 29.8),
    ("O=C(CSCc1ccco1)NC1CCCC1", 13.6),
    ("O=C(c1ccc(=O)[nH]c1)N(Cc1ccco1)C1(C(=O)NC2CCCCC2)CCCCC1", 8.99),
]

In the following, a different compound is considered.
Fill in the blank: the reported activation of CC(=O)c1ccc2noc(-c3ccc(C)cc3)c2c1 is ____. 6.52

----------
Target Under Test: Troponin I, cardiac muscle (Homo sapiens) + Troponin T, cardiac muscle (Homo sapiens) + Troponin C, slow skeletal and cardiac muscles (Homo sapiens) (UniProt P19429+P45379+P63316)
Assay Explanation: cardiac RTF calcium sensitivity activators, confirmation, biochemical, IANBD-TnC fluorescence, triplicate (AID 504383);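 note: 0% = DMSO at 0.472 mM calcium and 100% = DMSO at 2.9 mM calcium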
Condition Description: IANBD-labeled cardiac RTF, Ca2+ sensitivity fluorescence; at 7.2 µM; active compounds read high; scaled from EC20 to saturating calcium; tested at EC20 calcium, 0.472 mM
Among all 2,500 compounds or so, about 1,200 (48%) were called active. The set was probably picked from earlier hits. Some of the results follow.
// values below are reported activation

Fill in the blank: the reported activation of COc1cccc(C2C3CN(C)CC=C3C(C#N)=C(N)C2(C#N)C#N)c1OC (stereo unspecified) is ____. 8.43% (inactive)

Values from PubChem BioAssay AID504383
